I'd appreciate it if you could supply GFP response vs DMSO values for the items below.
- procedure.text: RPL19A-GFP modulators, yeast TOR pathway, confirmation, cell-based, S. cerevisiae, flow cytometry, cherry picks, mother/daughter gates (AID 2270)
- measurement.setup: S. cerevisiae RPL19A-GFP strain, 3 h, at 10 µM, stronger effect = lower value, 100 = same GFP as DMSO wells
Calls of active or inactive are those of the source.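 How the source made its calls: active means GFP response below 50% of the DMSO control; inconclusive means fewer than 70 events counted for a yeast strain; inactive means the rest.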

line.notation | GFP response vs DMSO
CCOC(=O)Cc1csc(NC(=O)c2sc3nc4cc(C)ccc4cc3c2N)n1 | 98.6% (inactive)
O=C(OCc1cccc([N+](=O)[O-])c1)c1cnccn1 | 98.5% (inactive)
Cn1nnnc1N=N/C(=N/Nc1ccccc1)c1ccccc1 | 97.6% (inactive)
COc1ccc(NC(=O)c2ccccc2NC(=O)c2ccccc2)cc1 | 98.4% (inactive)
Cc1cc(NC(=O)c2cc3ccccc3o2)ccc1NC(=O)c1ccccc1 | 98.4% (inactive)

API: the following record is the query input.
Query block: I have this molecule here, N#C/C(=C/c1ccc(N2CCOCC2)o1)c1ccc(Br)cc1 , and I need its recorded GFP response vs DMSO.
Result block: 96.6% (inactive)
